Sedated animals: recorded values
- System: mice
- Assay Context: mice, oral 100 mg/kg, 60 min before physostigmine

Worked examples follow.
1. CN(C)CCOC(c1ccccc1)c1ccccc1 [DIPHENHYDRAMINE]; 8/10
2. OCCOCCN1CCN(C(c2ccccc2)c2ccc(Cl)cc2)CC1 (centres unmarked) [HYDROXYZINE]; 9/10
3. CN1CCC(=C2c3ccccc3CC(=O)c3sccc32)CC1; 10/10
4. O=C1Cc2ccccc2C(=C2CCNCC2)c2ccsc21 (racemic); 3/10

Query (molecule): `COc1ccc(CN(CCN(C)C)c2ccccn2)cc1` ; field requested: Sedated animals
8/10
